B1: library; numbered along this chain (parent)
chain: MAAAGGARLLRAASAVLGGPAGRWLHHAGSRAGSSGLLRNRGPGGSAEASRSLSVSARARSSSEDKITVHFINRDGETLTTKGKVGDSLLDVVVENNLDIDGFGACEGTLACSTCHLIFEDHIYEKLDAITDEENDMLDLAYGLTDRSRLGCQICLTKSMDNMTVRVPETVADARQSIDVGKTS

# Variants of: B1
# test-name: scaled log2 fold change in cell abundance, elesclomol vs control (0 = silent mean, 1 = nonsense mean) (scaled log2 ratio); higher = higher viability under elesclomol (loss of FDX1 cuproptosis function);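 note: variant abundance is its share of total variant reads in each endpoint sample, from next-generation sequencing of the integrated ORF PCR-amplified out of genomic DNA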
# cond: with ABC1 FDX1 KO; elesclomol 5 nM; glucose 10 mM; 14 days
Returns Met if the recorded scaled log2 fold change is greater than or equal to 0.05, and Not met otherwise.

# count of solved cases: 2
I100F :: Not met
T157M :: Not met

Is the recorded value of scaled log2 fold change equal to or greater than 0.05 for this variant? V93I Met

# check: scaled log2 fold change of S50P is greater than or equal to 0.05 Not met

Hello, I need to know if D75E has measured scaled log2 fold change not below 0.05. Thanks! Met

Could you please find out whether V85M has scaled log2 fold change that meets 0.05 or exceeds it? Not met

Decide: is the reported value of scaled log2 fold change for A111M equal to or greater than 0.05? Not met

hey, is scaled log2 fold change for this one >= 0.05? T80K Met
